Tested On: T1, WHRN NPDZ12 R223H (UniProt Q9P202 33-377, R223H)
T1 construct: WHRN, residues 33-377 of UniProtKB Q9P202 with the deafness-related mutation R223H; source: E. coli BL21 (DE3), purified (Ni2+-NTA, size-exclusion chromatography)
T1 sequence (looked up): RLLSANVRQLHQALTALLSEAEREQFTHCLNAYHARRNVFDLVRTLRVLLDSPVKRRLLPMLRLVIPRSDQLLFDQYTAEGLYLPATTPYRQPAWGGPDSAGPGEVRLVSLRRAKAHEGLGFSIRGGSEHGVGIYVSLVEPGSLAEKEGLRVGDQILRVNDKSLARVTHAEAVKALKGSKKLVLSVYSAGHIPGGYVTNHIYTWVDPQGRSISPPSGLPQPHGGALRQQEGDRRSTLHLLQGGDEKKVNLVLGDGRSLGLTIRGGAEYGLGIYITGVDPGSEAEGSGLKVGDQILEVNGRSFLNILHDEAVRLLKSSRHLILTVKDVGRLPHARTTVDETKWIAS
Method Notes: ITC; MicroCal iTC200, 25 °C; 50 mM tris pH 7.5-8.0, 300 mM NaCl, 1 mM DTT, 1 mM EDTA; cell 20–50 µM, syringe 400–800 µM; one-site binding model
Measurement Parameters: both partners purified
Readout Label: pKd
Just the number, please; pKd means minus log10 of the concentration in mol/L.

Given the binder ADGRV1-CT (domain or fragment, UniProt Q8VHN7 6239-6298, looked up, ADGRV1 cytoplasmic region, residues 6239-6298 of UniProtKB Q8VHN7; Named Trx-ADGRV1-CT in SEC-MALS; also called Trx-ADGRV1-CT; VLGR1-CT; source: E. coli BL21 (DE3), purified (Ni2+-NTA, size-exclusion chromatography); not shown: Trx, N-terminal, kept) GSLIADEESQEFDDLIFALKTGAGLSVSDNESGQGSQEGGTLTDSQIVELRRIPIADTHL , what is its reported pKd? 5.48
